System Name: recombinant guanylate cyclase reporter cell line (Rattus norvegicus, UniProt P19686+P20595)
Construct: expressed in transfected cells
Sequence (P19686 1-690): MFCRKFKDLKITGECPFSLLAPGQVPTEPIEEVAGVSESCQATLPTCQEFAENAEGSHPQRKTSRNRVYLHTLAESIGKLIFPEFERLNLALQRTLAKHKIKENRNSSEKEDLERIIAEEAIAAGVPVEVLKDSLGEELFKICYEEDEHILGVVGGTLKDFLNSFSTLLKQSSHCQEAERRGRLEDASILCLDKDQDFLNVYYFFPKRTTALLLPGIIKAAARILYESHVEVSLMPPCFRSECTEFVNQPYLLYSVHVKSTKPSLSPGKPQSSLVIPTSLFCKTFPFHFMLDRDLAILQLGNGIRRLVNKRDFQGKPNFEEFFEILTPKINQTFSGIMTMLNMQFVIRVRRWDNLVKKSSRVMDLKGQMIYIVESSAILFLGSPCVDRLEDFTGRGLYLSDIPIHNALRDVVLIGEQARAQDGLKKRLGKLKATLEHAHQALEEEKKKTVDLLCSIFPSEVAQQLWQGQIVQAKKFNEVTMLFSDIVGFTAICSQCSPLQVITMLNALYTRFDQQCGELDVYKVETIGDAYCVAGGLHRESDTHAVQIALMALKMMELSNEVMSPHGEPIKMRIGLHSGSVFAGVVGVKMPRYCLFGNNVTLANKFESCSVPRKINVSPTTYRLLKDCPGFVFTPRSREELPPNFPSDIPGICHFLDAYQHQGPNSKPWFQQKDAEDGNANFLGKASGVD
Sequence (P20595 1-619): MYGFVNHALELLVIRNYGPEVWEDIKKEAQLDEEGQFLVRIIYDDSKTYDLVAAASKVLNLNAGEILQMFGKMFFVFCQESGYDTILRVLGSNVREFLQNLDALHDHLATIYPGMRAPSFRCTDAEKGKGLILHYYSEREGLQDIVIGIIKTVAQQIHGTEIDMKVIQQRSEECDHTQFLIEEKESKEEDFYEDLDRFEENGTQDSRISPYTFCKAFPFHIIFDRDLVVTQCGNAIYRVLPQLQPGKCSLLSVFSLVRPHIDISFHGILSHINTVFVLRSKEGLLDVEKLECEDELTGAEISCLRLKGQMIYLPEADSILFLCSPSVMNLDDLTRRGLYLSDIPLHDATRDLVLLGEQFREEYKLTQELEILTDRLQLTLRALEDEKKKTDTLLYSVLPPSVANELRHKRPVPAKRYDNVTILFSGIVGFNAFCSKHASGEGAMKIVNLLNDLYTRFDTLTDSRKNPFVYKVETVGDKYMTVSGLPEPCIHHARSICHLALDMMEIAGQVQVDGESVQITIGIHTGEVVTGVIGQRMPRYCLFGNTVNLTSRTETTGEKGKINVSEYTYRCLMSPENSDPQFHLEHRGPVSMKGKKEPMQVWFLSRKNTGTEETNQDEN
Test: Effect on a recombinant guanylate cyclase reporter cell line (B-2)
Type: cell-based
Setup Conditions: in some cases mean values for individual determinations
Quick reference for MEC (minimum effective concentration) among some compounds
Lab book: enter the figure in µM, no units written.

Cc1cc(OCc2c(F)cccc2F)n2nc(C)c(C(=O)N[C@@H](CO)c3nnc([C@@H](N)C(C)C)o3)c2c1
10
Cc1cc(OCc2c(F)cccc2F)n2nc(C)c(C(=O)NCCCS(=O)(=O)NC3CC3)c2c1
3.0
CCCc1nn2c(OCc3c(F)cccc3F)cc(C)cc2c1C(=O)NCC(C)(N)CCC (single isomer, unassigned)
1.0
Cc1cc(OCc2c(F)cccc2F)n2nc(C)c(C(=O)NCC(C)(N)CCOCc3ccccc3)c2c1 (racemic)
1.0

Incoming: Endpoint output: MEC (minimum effective concentration) of `CCCC[C@H](CO)NC(=O)c1c(C)nn2c(OCc3c(F)cccc3F)cc(C)cc12` . Value?
Outgoing: 0.1

----------
System Name: recombinant guanylate cyclase reporter cell line (Rattus norvegicus, UniProt P19686+P20595)
Construct: expressed in transfected cells
Sequence (P19686 1-690): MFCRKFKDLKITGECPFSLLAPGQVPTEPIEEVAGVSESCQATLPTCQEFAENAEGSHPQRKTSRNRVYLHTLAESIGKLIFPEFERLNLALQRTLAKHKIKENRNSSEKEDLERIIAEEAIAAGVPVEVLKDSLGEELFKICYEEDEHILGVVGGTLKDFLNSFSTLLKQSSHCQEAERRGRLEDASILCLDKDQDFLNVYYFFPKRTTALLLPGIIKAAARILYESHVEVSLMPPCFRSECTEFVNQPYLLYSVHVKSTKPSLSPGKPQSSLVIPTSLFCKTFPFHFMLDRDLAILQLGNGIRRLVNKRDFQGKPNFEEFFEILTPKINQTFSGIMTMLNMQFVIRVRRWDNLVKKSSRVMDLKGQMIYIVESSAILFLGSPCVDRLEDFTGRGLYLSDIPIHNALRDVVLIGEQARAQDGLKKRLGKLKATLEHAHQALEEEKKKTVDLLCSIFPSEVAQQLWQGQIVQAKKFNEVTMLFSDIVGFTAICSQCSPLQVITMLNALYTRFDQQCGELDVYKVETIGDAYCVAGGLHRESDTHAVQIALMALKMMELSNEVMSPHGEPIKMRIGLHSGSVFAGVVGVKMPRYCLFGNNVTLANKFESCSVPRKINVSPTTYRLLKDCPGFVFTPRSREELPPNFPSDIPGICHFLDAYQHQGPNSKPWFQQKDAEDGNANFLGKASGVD
Sequence (P20595 1-619): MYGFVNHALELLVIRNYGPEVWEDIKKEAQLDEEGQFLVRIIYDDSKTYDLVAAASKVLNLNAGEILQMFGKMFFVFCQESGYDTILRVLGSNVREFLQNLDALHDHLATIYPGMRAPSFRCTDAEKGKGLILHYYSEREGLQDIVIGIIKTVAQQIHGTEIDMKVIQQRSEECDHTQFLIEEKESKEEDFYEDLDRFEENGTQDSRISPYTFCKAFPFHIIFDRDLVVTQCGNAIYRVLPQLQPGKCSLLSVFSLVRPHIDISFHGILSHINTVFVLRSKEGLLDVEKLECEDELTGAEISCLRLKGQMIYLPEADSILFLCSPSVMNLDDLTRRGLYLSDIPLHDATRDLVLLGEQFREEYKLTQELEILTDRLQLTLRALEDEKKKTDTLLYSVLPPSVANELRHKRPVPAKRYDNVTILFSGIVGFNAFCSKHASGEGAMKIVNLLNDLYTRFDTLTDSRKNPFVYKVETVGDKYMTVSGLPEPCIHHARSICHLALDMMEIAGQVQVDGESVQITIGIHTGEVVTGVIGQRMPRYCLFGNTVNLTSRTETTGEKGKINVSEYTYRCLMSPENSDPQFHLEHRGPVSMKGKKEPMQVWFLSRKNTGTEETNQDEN
Test: Effect on a recombinant guanylate cyclase reporter cell line (B-2)
Format: cell-based
Setup Conditions: in some cases mean values for individual determinations
Quick reference for MEC (minimum effective concentration) among some molecules
Lab book: enter the figure in µM, no units written.

Consider the reported MEC (minimum effective concentration) for these molecules:
CCCC(C)(N)CNC(=O)c1c(C)nn2c(OCc3c(F)cccc3F)cc(OC)cc12 (racemic)
1.0
Cc1cc(OCc2c(F)ccc(F)c2F)n2nc(C)c(C(=O)NCCC3(O)CCCC3)c2c1
0.3
Cc1cc(OCc2c(F)cccc2F)n2nc(C)c(C(=O)N[C@@H]3CNC[C@@H]3F)c2c1 (relative stereo)
1.0
CC(=O)NCCNC(=O)c1c(C)nn2c(OCc3c(F)cccc3F)cc(C)cc12
10

Incoming: Endpoint output: MEC (minimum effective concentration) of Cc1ccc2c(c1)OC(C)(C)CC2NC(=O)c1c(C)nn2c(OCc3c(F)cccc3F)cc(C)cc12 (racemic) . Value?
Outgoing: 1.0

Incoming: Endpoint output: MEC (minimum effective concentration) of `COC(=O)C12CC3CC(CC(CNC(=O)c4c(C)nn5c(OCc6c(F)cccc6F)cc(C)cc45)(C3)C1)C2` . Value?
Outgoing: 1.0

Incoming: Endpoint output: MEC (minimum effective concentration) of CC=CCC(N)CNC(=O)c1c(C)nn2c(OCc3c(F)cccc3F)cc(C)cc12 (racemic) . Value?
Outgoing: 0.3

Incoming: Endpoint output: MEC (minimum effective concentration) of Cc1cc(OCc2c(F)cccc2F)n2nc(C)c(C(=O)NC3Cc4ccccc4C3N)c2c1 (centres unmarked) . Value?
Outgoing: 3.0

Incoming: Endpoint output: MEC (minimum effective concentration) of Cc1cc(OCc2c(F)cccc2F)n2nc(C)c(C(=O)NC3CCCc4ccccc43)c2c1 (racemic) . Value?
Outgoing: 0.1

Incoming: Endpoint output: MEC (minimum effective concentration) of CCC(C)(N)CNC(=O)c1c(C)nn2c(OCc3c(F)ccc(F)c3F)cc(C)cc12 (single isomer, unassigned) . Value?
Outgoing: 0.3

Incoming: Endpoint output: MEC (minimum effective concentration) of `CCCC[C@@H](C)NC(=O)c1c(C)nn2c(OCc3c(F)cccc3F)cc(C)cc12` . Value?
Outgoing: 1.0
